# credit: the supplement of paper PMC10567573

B1: PSD2 (parent)
chain: PLMGETQERERVLTHFSRRYCQCN

variants of: B1; test: protein stability index of a GFP-peptide fusion (GPS, HEK-293T) (PSI 1-6); higher = more stable; settings: c terminus: a fixed tail appended;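 further: lentivirally expressed fusions sorted by FACS into six bins by GFP to DsRed ratio, PSI derived from sequencing read proportions per bin multiplied by bin number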
Recorded protein stability index for the following variants
Readout kind: protein stability index

Mutations	Readout kind	Test value
Q22A	protein stability index	3.55
E10C	protein stability index	2.92
V12I	protein stability index	3.05
C21S	protein stability index	3.53
E8N	protein stability index	2.46
M3S	protein stability index	2.97
S17A	protein stability index	2.11
T14F	protein stability index	2.63
E5G	protein stability index	2.46
R19I	protein stability index	2.54
L2I	protein stability index	3.17
L2V	protein stability index	3.35
Y20W	protein stability index	2.42
Q22R	protein stability index	3.98
E8S	protein stability index	2.39
T14V	protein stability index	2.69
F16A	protein stability index	3.85
V12S	protein stability index	3.03
V12Q	protein stability index	3.6
Y20L	protein stability index	3
R19Y	protein stability index	1.98
P1W	protein stability index	2.3
Q22L	protein stability index	2.39
R19C	protein stability index	3.28
F16K	protein stability index	3
V12N	protein stability index	2.99
M3W	protein stability index	2.79
L13G	protein stability index	3.52
E10A	protein stability index	2.07
C21Q	protein stability index	3.67
Q22W	protein stability index	2.49
E5M	protein stability index	1.87
N24M	protein stability index	2.96
N24L	protein stability index	2.71
L2F	protein stability index	2.41
R18G	protein stability index	4.12
H15K	protein stability index	3.41
C21E	protein stability index	3.81
T6Y	protein stability index	2.33
C21P	protein stability index	3.92
P1Q	protein stability index	2.81
Q22F	protein stability index	2.42
L2Q	protein stability index	3.35
T6C	protein stability index	4.24
C23A	protein stability index	4.01
C21N	protein stability index	3.29
V12M	protein stability index	2.85
R9N	protein stability index	4.17
H15P	protein stability index	2.6
R19G	protein stability index	3.71
C23T	protein stability index	3.87
S17G	protein stability index	3.85
